# testSystem: MOR (Mus musculus, UniProt P42866)
# Sequence (P42866 whole entry): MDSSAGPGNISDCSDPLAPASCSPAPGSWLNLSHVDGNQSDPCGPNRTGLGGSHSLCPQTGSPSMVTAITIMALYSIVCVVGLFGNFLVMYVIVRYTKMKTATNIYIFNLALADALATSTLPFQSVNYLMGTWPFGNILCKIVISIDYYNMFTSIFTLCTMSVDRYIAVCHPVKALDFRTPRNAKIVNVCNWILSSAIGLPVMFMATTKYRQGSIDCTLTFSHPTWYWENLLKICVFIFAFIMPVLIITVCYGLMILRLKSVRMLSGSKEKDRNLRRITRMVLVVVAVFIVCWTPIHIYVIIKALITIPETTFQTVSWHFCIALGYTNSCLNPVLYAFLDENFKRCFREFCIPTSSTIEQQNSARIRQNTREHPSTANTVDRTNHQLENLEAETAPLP
# experiment: Competitive radioligand binding, [3H]DAMGO, mono-cloned receptor in CHO cells (Example 1)
# Set-up: expressed in transfected cells; host or cells: CHO (Chinese hamster ovary) cell line, membrane preparation
# conditionSummary: read-out: Ki ± SEM [3H]DAMGO (μ); n=3
property: Ki (pM)
Quick note: give the figure in pM, leave out the unit.

// map `COC(=O)/C=C/C(=O)N[C@@H]1CC[C@@]2(O)[C@H]3Cc4ccc(O)c5c4[C@@]2(CCN3CC2CC2)[C@H]1O5` to recorded Ki (system: MOR (Mus musculus, UniProt P42866))
410

Entry source: patent US8980908B2
